Values were extracted from a melting point compilation (Tetko et al.; mined from patent text by program, amines drawn as free bases though some values may be those of a salt).

A collection of compounds and their measured melting point

Compound	melting point
CC(=O)N1CCN=C1Nc1c(C)c(C)nn1C	212 to 215 °C
Cc1cc(Nc2ccccc2C(=O)O)n(C)n1	210 to 211 °C
O=[N+]([O-])c1cccc2c1nnn2C1CCCC(Cl)C1Cl (stereo unspecified)	145 to 148 °C
CN(C)C(N)=C(C#N)C#N	228 to 229 °C
COCOc1cc(Cl)ccc1-c1cc(-c2cccc([N+](=O)[O-])c2)c(C#N)c(NC(=O)c2ccco2)n1	154 to 155 °C
COC(=O)c1cc2c(N3CCN(CCC(C(=O)N4CCCCCC4)c4ccccc4)CC3)cccc2[nH]1 (stereo unspecified)	152 to 168 °C

----------
Compound	melting point
CCc1ccc2c(c1)C=Cc1cc(C)ccc1C2c1cn(-c2ccnc(N3CC(C(=O)O)C3)n2)c(=O)[nH]c1=O (stereo unspecified)	244 °C
O=C(O)Cc1c(C(=O)c2cccc(Br)c2)[nH]c2cc(Cl)ccc12	215 to 218 °C
CN1CCN(c2ncccc2OC2CCN(c3ccc(Br)cc3)C2=O)CC1 (stereo unspecified)	72 to 82 °C
O=C(O)c1cccc(-c2ncn(-c3ccc(-c4ccccc4)cc3)n2)c1	263 to 265 °C
O=C(NN1CCCCC1)NS(=O)(=O)C=Cc1ccccc1	175 to 177 °C
CCC(CC)Nc1cc(COC(C)=O)c([N+](=O)[O-])cc1[N+](=O)[O-]	46 to 52 °C
CCCCOc1cc(/C=C(\OCC)C(=O)O)ccc1OCCc1ccc(OS(=O)(=O)CCCC)c(Cl)c1	80 °C
CCc1nc2c(-c3cc4cc(Br)oc4cc3C)ncnc2n1C(C1CC1)C1CC1	177 to 178 °C
COC(=O)c1ccc(OCC2CC(=O)N(c3ccc(O)cc3)C2)cc1 (stereo unspecified)	141 to 144 °C
c1cc2cc(-n3cnnc3)ncc2[nH]1	254 to 257 °C
N#CC=Cc1ccc([N+](=O)[O-])cc1	112 °C
CC1=CC(N)=NC(c2ccccc2C(F)(F)F)N1c1n[nH]c2ccccc12 (stereo unspecified)	235 to 237 °C
CCCP(=O)(CCC)Cc1ccc(N)cc1	104 to 106 °C
Cc1noc(C)c1COCCn1cnc2c(N)nc3ccccc3c21	213 to 215 °C
O=C(C(=O)c1cccc(F)c1)c1cccc(F)c1	104 to 105 °C
CC(C)(c1ccccc1)n1nnc(-c2ccccc2)n1	44 to 46 °C

----------
A collection of compounds and their measured melting point

Compound	melting point
Cc1ccc(-c2[nH]c(-c3cccnc3)nc2C(=O)O)cc1	140 to 142 °C
CC(=O)S[C@@H]1CCO[C@@H](/C(C)=C/c2ccc(C(F)(F)F)cc2)O1 (relative stereo)	128 to 129 °C
COC(=O)c1nc(-c2ccc(CF)cc2)cc(N)c1Cl	95 to 97 °C
CCCCOc1ccc(S(=O)(=O)NC(=O)c2ccc(C(=O)OC)nc2)cc1	174 to 176 °C

----------
A collection of molecules and their measured melting point

Molecule	melting point
O=Cc1cc(-n2nnnc2C(F)(F)F)ccc1OC(F)(F)F	40 to 42 °C
COC(=O)CCCC(=O)N(CCc1c[nH]c2ccccc12)Cc1ccccc1	107 to 108 °C
CCC(=CC(CSc1nnc(C)s1)=NO)C(C)[N+](=O)[O-] (stereo not given)	75 to 76 °C
COc1cc2c(-c3ccnc(Cl)c3)c(CO)c(CO)cc2cc1OC(C)C	129 to 131 °C
CC1=C(C(=O)N(C)Cc2ccc(Cl)cc2)SC2=NC(C)(C)CN21	139 °C
O=C(Nc1nccs1)c1cn(CC2CC2)c2cc(Cl)ccc12	185 to 187 °C
Cc1ccc(S(=O)(=O)N2CC(O)CC2C(=O)O)cc1 (stereo not given)	146 to 147 °C
CC(C)c1ccccc1Sc1c(O)cc(-c2ccc3c(c2)OCCO3)oc1=O	246 to 248 °C
COc1cc(CC(=O)c2c(O)c3cccnc3n(-c3ccccc3)c2=O)cc(OC)c1	170 to 171 °C
CN(N)c1cnn(-c2cccc(C(F)(F)F)c2)c(=O)c1	125 to 127 °C
O=C1C=C(CBr)C(=O)C(CCC2=CC(=O)C=C(CBr)C2=O)=C1	146 to 147 °C
COc1ccc(C(=O)NC(=S)Nc2ccccc2C(N)=O)cc1	193 to 196 °C
CN(C)C(=O)c1cc(-c2ccccc2)c(=O)n2c1-c1ccccc1C2	207 to 209 °C
Cc1nc2c(N)nc3ccccc3c2n1CCCCNS(=O)(=O)c1ccccc1	215 to 216 °C
CC(=O)c1ccc2c(c1)C1(c3ccccc3-2)c2cc(C(C)=O)ccc2-c2ccc(C(C)=O)cc21	258 to 260 °C
CCCc1nn(C)c2c(=O)[nH]c(Cc3ccc(O)cc3)nc12	260 °C
CCC(Oc1ccccc1)c1nnc(NC(=O)N(C)CC(OC)OC)s1 (stereo not given)	84 to 85 °C
FC(F)(F)c1ccc2c(C3=CCN(CCCOc4cccc5[nH]ccc45)CC3)c[nH]c2c1	190 to 195 °C
Cn1cncc1C(O)(c1ccc(Cl)cc1)c1ccc2c(c1)c(CCc1cccc(Cl)c1)cc(=O)n2C (stereo not given)	190 °C
FC(F)C(F)(F)Oc1cccc(Nc2nccc(-c3c[nH]c4ccccc34)n2)c1	140 to 142 °C
CCN1CCCOc2ccc(Nc3ncc(Cl)c(Nc4ccsc4C(=O)NC)n3)cc21	153 to 155 °C
Cc1cc(NC(=O)C(C)(O)COc2ccc(OCCCl)cc2)ccc1[N+](=O)[O-] (stereo not given)	131 to 133 °C
Cc1nc2ccccc2n1-c1ccc(I)cc1	136 to 137 °C
Cc1cc(-c2ccccc2)nn1C(C)(C)C(=O)N(C)C	123 to 125 °C
O=C(O)CCc1ocnc1-c1ccccc1	142 to 143 °C

----------
Property name: melting point

Compound	Recorded result
CCCOc1ccccc1-c1nc2nc(OCC)ncc2c(=O)[nH]1	196 to 198 °C
O=[N+]([O-])c1cc(NC(=S)N2CCCCN2)c(F)cc1Cl	118 to 120 °C
Cc1ccccc1CCNC(=O)c1ccc(Cl)cc1	95 to 96 °C
CC(C)c1ocnc1C(=O)O	136 to 137 °C
COc1cc(OCCCCN2CCCN(CCCCOc3cc(OC)c(OC)c(OC)c3)CC2)cc(OC)c1OC	124 to 126 °C
Cc1ccc(S(=O)(=O)Nc2ccc(C#N)cc2Cl)cc1	186 to 187 °C
CC1CNc2cccc3c(=O)c(C(=O)O)cn1c23 (stereo not drawn)	> 250 °C
COC(=O)CCCC(C)(C)c1ccc(O)c(C(C)=O)c1O	94 to 97 °C
CCc1cn2ccccc2c1S(=O)(=O)c1ccc(OS(=O)(=O)c2ccc(C)cc2)cc1	190 °C
CN(C)C(=N)CSc1nnc(S)s1	95 to 97 °C
Cc1nn(C)c(C2=NCCN2)c1[N+](=O)[O-]	143 to 145 °C
O=C1C(O)N=C(c2ccccc2F)c2ccccc2N1C1CCNCC1 (stereo not drawn)	190 to 192 °C
Cc1nc2ccccc2nc1S(=O)Cc1ccccn1 (stereo not drawn)	85 to 88 °C

----------
Molecule	melting point
CCOC(=O)C(C)=NNc1ccc(F)c(Cl)c1	89 to 91 °C
CC1=C(C(=O)Nc2ccccn2)C(c2ccccc2Cl)C(C(=O)OCCCCn2c(C)nc3cnccc32)=C(c2ccc(F)cc2)N1 (stereo not given)	129 to 132 °C
CC1=C(C(=O)c2ccc(C(=O)NCCC#N)cc2)C(=O)C2C=CC=CC2C1=O (stereo not given)	172 to 173 °C
COC(=O)c1ccc(-c2ccc3nc(OC)ccc3c2)cc1	158 to 161 °C
CSc1nc(O)c(C=O)c(O)n1	> 250 °C

----------
A collection of compounds and their measured melting point
Property name: melting point

Compound	Recorded result
CS(=O)(=O)c1cnc(NC(=O)c2ccccc2O)s1	282 to 283 °C
CN(NC(=O)c1ccccc1C(=O)O)C(=S)Nc1ccccc1	155 to 156 °C
O=C(CCCc1ccccc1)c1c(O)c2cccnc2n(-c2ccccc2)c1=O	200 to 202 °C
O=C(C1CN(S(=O)(=O)c2ccc3cc(Br)ccc3c2)CCN1C(=O)C1CCN(c2ccncc2)CC1)N1CCSCC1 (stereo not drawn)	250 to 258 °C
Cc1[nH]c(C(=O)Nc2ccc3ncsc3c2)c(C)c1-c1nc2ccc(C(=O)c3ccccc3)cc2[nH]1	155 to 157 °C
Cc1ccc(-n2c(-c3ccc(-c4ccc(-c5nc6c7ccccc7c7ccccc7c6n5-c5ccc(C)cc5)cc4)cc3)nc3c4ccccc4c4ccccc4c32)cc1	405 °C
NC(=O)CCCCCOc1ccc(C#Cc2ccc(C(=O)O)cc2)cc1C12CC3CC(CC(C3)C1)C2	269 to 270 °C
CCCOc1ccc(CCCCCCC(=O)O)cc1	49 to 50 °C
COc1cccc(F)c1-c1ccc(NC(=O)OC(C)(C)C)c(N)c1	165 to 167 °C
CN1CCC(c2c[nH]c3ccc(NS(=O)(=O)c4ccc(I)cc4)cc23)CC1	> 250 °C
Cc1nc(C(=O)O)cnc1Cl	116 to 117 °C
Cn1nnnc1SCC1=C(C(=O)O)N2C(=O)C(NC(=O)Cn3ccnc3S(C)(=O)=O)C2SC1 (stereo not drawn)	230 °C
CCc1ccccc1N1CCN(C(=O)Nc2nc3ccccc3nc2OC)CC1	191 to 193 °C
